These data points were gathered from paper PMC4498294.

Test system: murine macrophage cell line RAW264.7
PROCEDURE TEXT: Eukaryotic cell toxicity assay, RAW264.7
Assay type: cell-based
CONDITION LABEL: Mus musculus; murine macrophage cell line RAW264.7; read-out: GIC50 RAW264.7
Each entry below carries its reported log10 IC50.
OBSERVABLE: log10 IC50 (log10 of the value in µg/mL)

MOLECULE: OC[C@@H](O)[C@@H]1NCCc2cc(O)c(O)cc21 [Compound 14]
log10 IC50: 1.93

MOLECULE: O=C(O)[C@@H]1Cc2cc(O)c(O)cc2[C@@H](Cc2ccccc2)N1 [Compound 11]
log10 IC50: 1.94

MOLECULE: O=C(O)[C@@H]1Cc2cc(O)c(O)cc2C(Cc2ccc3c(c2)OCO3)N1 (stereo partly drawn) [Compound 26]
log10 IC50: 2.26

MOLECULE: CCCCCCCCCC1NCCc2cc(O)c(O)cc21 (stereo not drawn) [Compound 24]
log10 IC50: 0.20

MOLECULE: Oc1cc2c(cc1O)C(c1ccccc1O)NCC2 (stereo not drawn) [Compound 8]
log10 IC50: 1.94

MOLECULE: COc1cc2c(c(O)c1OC)C[C@H]1c3c(cc4c(c3-2)OCO4)CCN1C [(S)-Leucoxine (1), (S)-Leucoxine]
log10 IC50: 2.10

MOLECULE: COc1ccc(CC2NCCc3cc(O)c(O)cc32)cc1OC (stereo not drawn) [Compound 18]
log10 IC50: 1.75

MOLECULE: Oc1cccc(C2NCCc3cc(O)c(O)cc32)c1 (stereo not drawn) [Compound 7]
log10 IC50: 1.94

MOLECULE: Oc1cc2c(cc1O)C(Cc1ccccc1)NCC2 (stereo not drawn) [Compound 3]
log10 IC50: 1.91

MOLECULE: COc1ccc(Cl)c2c1C(Cc1cc3c(cc1Br)OCO3)NCC2 (stereo not drawn) [Compound 39]
log10 IC50: 1.86

MOLECULE: Oc1ccc(C2NCCc3cc(O)c(O)cc32)cc1 (stereo not drawn) [Compound 6]
log10 IC50: 1.96

MOLECULE: Oc1cc2c(cc1O)C(Cc1ccc3c(c1)OCO3)NCC2 (stereo not drawn) [Compound 20]
log10 IC50: 2.28

MOLECULE: COc1ccc(C2NCCc3cc(O)c(O)cc32)cc1 (stereo not drawn) [Compound 5]
log10 IC50: 1.96

MOLECULE: CN1C[C@H](O)c2cc(O)c(O)cc2[C@H]1c1cccc2c1OCO2 [Compound 32]
log10 IC50: 2.26

MOLECULE: CC1(C(=O)O)NCCc2cc(O)c(O)cc21 (stereo not drawn) [Compound 22]
log10 IC50: 2.25

MOLECULE: CN1C[C@H](O)c2cc(O)c(O)cc2[C@@H]1c1cccc2c1OCO2 [Compound 31]
log10 IC50: 2.14

MOLECULE: Oc1ccc2c(c1)CCNC2Cc1ccc2c(c1)OCO2 (stereo not drawn) [Compound 27]
log10 IC50: 2.18

MOLECULE: COc1cccc2c1C(Cc1ccc3c(c1)OCO3)NCC2 (stereo not drawn) [Compound 40]
log10 IC50: 2.34
